Listed below: IC50 values for each entry.
# Test system: MCF-7 cells
# test_description: Breast cancer cell viability assay (CellTiter-Glo, 5 days)
# Type: cell-based
# experimental_parameters: Homo sapiens, MCF7, 120 h, 5 days' compound exposure

Example entries begin here.
CC/C(=C(/c1ccc(/C=C/C(=O)O)cc1)c1cccc2[nH]nnc12)c1ccccc1 | > 0.1 µM
CC/C(=C(/c1ccc(/C=C/C(=O)O)cc1)c1ccc2[nH]ncc2c1F)c1cccc(Oc2ccccn2)c1 | ≤ 0.1 µM
CCCS(=O)(=O)NC(=O)/C=C/c1ccc(/C(=C(/CC)c2ccc(F)cc2Cl)c2ccc3[nH]ncc3c2)cc1 | ≤ 0.1 µM

Enquiry: Request the reported IC50 associated with CC/C(=C(/c1ccc(/C=C/C(=O)O)cc1)c1ccc2[nH]c(=O)[nH]c2c1)c1ccccc1
Return: > 0.1 µM

Enquiry: Data request, read-out IC50, for CC/C(=C(/c1ccc(/C=C/C(=O)O)cc1)c1ccc2[nH]ncc2c1)c1ccc(Oc2ccccc2)cc1
Return: ≤ 0.1 µM

Enquiry: Tell me the measured IC50 of CC/C(=C(/c1ccc(/C=C/C(=O)O)cc1)c1ccc2[nH]ncc2c1)c1cccc2occc12 , please.
Return: ≤ 0.1 µM

Enquiry: Which IC50 value belongs to CC/C(=C(/c1ccc(/C=C/C(=O)O)cc1)c1ccc2[nH]ncc2c1)c1ccc(C)c(Oc2ccccc2)c1 ?
Return: > 0.1 µM

Enquiry: Give the measured IC50 of CC/C(=C(/c1ccc(/C=C/C(=O)O)cc1)c1ccc2[nH]ncc2c1)c1ccc2sncc2c1 .
Return: ≤ 0.1 µM

Enquiry: What measured IC50 goes with CC/C(=C(/c1ccc(/C=C/C(=O)O)cc1)c1coc2ccccc12)c1ccc(F)cc1Cl ?
Return: ≤ 0.1 µM

Enquiry: Requested field: IC50. Item: CC/C(=C(/c1ccc(/C=C/C(=O)O)cc1)c1ccc2[nH]ncc2c1)c1cccc(Oc2cnccn2)c1
Return: ≤ 0.1 µM

Enquiry: Tell me the measured IC50 of CC/C(=C(/c1ccc(/C=C/C(=O)O)cc1)c1ccc2[nH]nnc2c1)c1ccccc1 , please.
Return: ≤ 0.1 µM

Enquiry: Quick check: IC50 of O=C(O)/C=C/c1ccc(/C(=C(\c2ccccc2)C2CCC2)c2ccc3scnc3c2)cc1 ?
Return: ≤ 0.1 µM

Enquiry: Item under review: CC/C(=C(/c1ccc(/C=C/C(=O)O)cc1)c1ccc2sncc2c1)c1ccccc1 . Reported IC50?
Return: > 0.1 µM

Enquiry: For the compound shown here, CC/C(=C(/c1ccc(/C=C/C(=O)N(C)OC)cc1)c1ccc2[nH]ncc2c1)c1ccc(F)cc1Cl , give the reported IC50.
Return: ≤ 0.1 µM

Enquiry: What value of measured IC50 is listed for CC/C(=C(/c1ccc(/C=C/C(=O)O)cc1)c1ccc2[nH]ncc2c1)c1ccc(-c2ccsc2)cc1 ?
Return: > 0.1 µM

Enquiry: Find the recorded IC50 belonging to CC/C(=C(/c1ccc(/C=C/C(=O)O)cc1)c1coc2c(OC)cccc12)c1ccc(F)cc1Cl and report it.
Return: ≤ 0.1 µM

Enquiry: Request the reported IC50 associated with CC/C(=C(/c1ccc(/C=C/C(=O)O)cc1)c1ccc2[nH]ncc2c1F)c1cccc(Oc2ncccn2)c1
Return: ≤ 0.1 µM

Enquiry: Requested read-out: IC50. Entry: CC/C(=C(/c1ccc(/C=C/C(=O)O)cc1)c1cc(F)cc2[nH]ncc12)c1ccccc1
Return: ≤ 0.1 µM
